# SYSTEM_UNDER_TEST: HCV NS5B polymerase (His-tagged, C-terminal 21 amino acid deleted NS5B, HC-J4) (Hepatitis C virus genotype 1b)
# Construct: The cDNA encoding NS5B amino acid 1-570 (HC-J4, genotype 1b); His tag (His6, from pET-21b) (C); made in house; host or cells: E. coli BL21 (DE3)
# ASSAY_OVERVIEW: NS5b polymerase assay (biochemical RdRp assay, 3H-GTP incorporation, SPA beads)
# Design: species or system HCV genotype 1b
# CONDITION_CONTEXT: NS5B Polymerase Assay IC50 (μM)
PARAMETER_MEASURED: IC50

# annotated cases, reported IC50 shown
[[record]]
molecule = "O=C1CC(c2ccccc2)CC2=C1C(c1cccc(OCc3ccccc3)c1)Nc1ccccc1N2 (stereo not shown) [compound 373]"
test_value = "> 42.7 µM"

[[record]]
molecule = "COc1cc(C2Nc3ccccc3NC3=C2C(=O)CC(c2ccccc2)C3)cc(OC)c1OC (stereo not shown) [compound 339]"
test_value = "> 42.7 µM"

[[record]]
molecule = "O=C1C[C@@H](c2ccccc2)CC2=C1[C@H](c1ccc3c(c1)OCO3)Nc1ccc(C(=O)c3ccccc3)cc1N2 [compound 491]"
test_value = "> 42.7 µM"


Here is the next item to consider.
GET /value?item= CC1(C)CC(=O)C2=C(C1)Nc1ccccc1NC2c1ccc(O)cc1 (stereo not shown) [compound 440] &field=IC50 returns > 133 µM

* * *

# SYSTEM_UNDER_TEST: HCV NS5B polymerase (His-tagged, C-terminal 21 amino acid deleted NS5B, HC-J4) (Hepatitis C virus genotype 1b, UniProt O92972)
# Construct: The cDNA encoding NS5B amino acid 1-570 (HC-J4, genotype 1b); His tag (His6, from pET-21b) (C); made in house; host or cells: E. coli BL21 (DE3)
# Sequence (O92972 2417-3000, looked up, stated change not applied): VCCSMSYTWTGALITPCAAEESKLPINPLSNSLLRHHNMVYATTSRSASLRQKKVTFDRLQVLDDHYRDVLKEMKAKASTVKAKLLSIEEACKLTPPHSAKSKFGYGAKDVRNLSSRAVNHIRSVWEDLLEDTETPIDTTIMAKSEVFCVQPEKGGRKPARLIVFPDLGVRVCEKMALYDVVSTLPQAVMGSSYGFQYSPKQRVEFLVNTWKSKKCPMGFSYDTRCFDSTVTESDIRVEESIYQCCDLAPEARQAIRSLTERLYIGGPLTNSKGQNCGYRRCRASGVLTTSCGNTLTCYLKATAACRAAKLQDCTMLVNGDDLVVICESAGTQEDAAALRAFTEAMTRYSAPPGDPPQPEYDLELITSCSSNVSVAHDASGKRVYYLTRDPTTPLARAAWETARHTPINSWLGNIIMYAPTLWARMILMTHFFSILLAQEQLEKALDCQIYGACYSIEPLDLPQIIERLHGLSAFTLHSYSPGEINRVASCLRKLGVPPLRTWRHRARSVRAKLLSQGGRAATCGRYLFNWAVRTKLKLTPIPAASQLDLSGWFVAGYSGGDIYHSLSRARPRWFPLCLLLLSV
# ASSAY_OVERVIEW: NS5b polymerase assay (biochemical RdRp assay, 3H-GTP incorporation, SPA beads)
# Set-up: species or system HCV genotype 1b
# CONDITION_CONTEXT: NS5B Polymerase Assay IC50, 200 nM enzyme, 3H-GTP incorporation, 2 h at 25° C.
pIC50: −log10 of the molar value.
PARAMETER_MEASURED: pIC50

// sample CCC(C)Oc1ccccc1C1C2=C(CC(C)(C)CC2=O)Nc2ccccc2N1C(=O)C(F)(F)F (stereo not shown) [compound 65] , its pIC50 was < 4.37

Value of measured pIC50 for the entry CCOc1ccc(C2C3=C(CC(C)(C)CC3=O)Nc3ccccc3N2C(=O)C(F)(F)F)cc1 (stereo not shown) [compound 2] : < 4.37

pIC50 reading for CC(=O)N1c2ccccc2NC2=C(C(=O)CC(c3ccccc3OCc3ccccc3)C2)C1C(Br)=Cc1ccccc1 (mixture of isomers) [compound 299] : < 3.88

compound CCCCC(=O)N1c2ccccc2NC2=C(C(=O)CC(C)(C)C2)C1c1ccccc1Cl (stereo not shown) [compound 66] , pIC50 observed: < 4.37

The measured pIC50 associated with COc1ccc(OC)c(C2C3=C(CC(C)(C)CC3=O)Nc3ccccc3N2C(=O)C(F)(F)F)c1 (stereo not shown) [compound 3] reads < 4.37

Kindly note the recorded pIC50 for CCC(=O)N1c2ccccc2NC2=C(C(=O)CC(C)(C)C2)C1c1ccc(F)cc1 (stereo not shown) [compound 49] , which is < 4.37

Per the record, CCC(=O)N1c2ccccc2NC2=C(C(=O)CC(C)(C)C2)C1c1ccc(OC)c(OC)c1 (stereo not shown) [compound 84] has pIC50 of < 4.37

Per the records, this compound ( COc1c(Cl)cc(Cl)cc1C1C2=C(CC(C)(C)CC2=O)Nc2ccccc2N1C(=O)Cc1ccccc1 (stereo not shown) [compound 15] ) has pIC50 equal to < 4.37

Notebook: COc1ccc(C2C3=C(CC(C)(C)CC3=O)Nc3ccccc3N2C(=O)C(F)(F)F)cc1OC (stereo not shown) [compound 106] , pIC50 read as < 4.37

Entry CCC(=O)N1c2ccccc2NC2=C(C(=O)CC(C)(C)C2)C1c1ccccc1OC(C)CC (stereo not shown) [compound 61] ; pIC50 = < 4.37

Reported pIC50 ( CC1(C)CC(=O)C2=C(C1)Nc1ccccc1N(C(=O)c1ccccc1)C2c1ccc(F)cc1 (stereo not shown) [compound 77] ) = < 4.37
